tested.on: GHSR1a (Homo sapiens)
Construct: expressed in transfected cells; host or cells: HEK293
Sequence (Q92847 whole entry): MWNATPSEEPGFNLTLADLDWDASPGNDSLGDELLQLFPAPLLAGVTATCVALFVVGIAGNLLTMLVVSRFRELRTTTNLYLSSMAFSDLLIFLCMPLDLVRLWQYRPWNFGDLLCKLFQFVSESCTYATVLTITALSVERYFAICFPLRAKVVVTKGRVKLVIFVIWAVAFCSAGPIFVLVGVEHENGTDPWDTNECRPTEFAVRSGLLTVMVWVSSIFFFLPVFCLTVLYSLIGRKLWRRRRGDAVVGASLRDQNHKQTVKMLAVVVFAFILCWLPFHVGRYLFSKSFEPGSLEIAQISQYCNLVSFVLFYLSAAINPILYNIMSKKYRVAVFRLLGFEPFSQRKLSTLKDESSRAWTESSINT
assay.notes: Calcium FLIPR assay, GHSR-1a agonism
Type: cell-based
Design: unit not given here
condition.summary: HEK293/GHSR1a cells
readout.label: Emax

See these solved cases before continuing.
                                   compound  readout_label  recorded_result
0  CC(NC(=O)N(C)C1CCN(C)CC1)c1ccc(NC2CC2)c(Cl)c1Cl (centres unmarked)           Emax             3815
1  C#Cc1ccc(C(CC2CC2)NC(=O)N(OCC)C2CCN(C)CC2)c(Cl)c1Cl (centres unmarked)           Emax             3536
2  CCc1ccc(C(C)NC(=O)N(C)C2CCN(C)CC2)c(Cl)c1Cl (centres unmarked)           Emax             4433
3  CC(O)c1ccc(-c2ccc(C(C)NC(=O)N(C)C3CCN(C)CC3)c(Cl)c2Cl)s1 (centres unmarked)           Emax             1350
4  CC(NC(=O)N(C)C1CCN(C)CC1)c1ccc(-c2ccc(CO)s2)c(Cl)c1Cl (centres unmarked)           Emax             1815

[1] CN1CCC(N(O)C(=O)NC(CC2CC2)c2ccc(-c3cnccn3)c(Cl)c2Cl)CC1 (single isomer, unassigned) [Compound H0782]
[2] CC(NC(=O)N(C)C1CCN(C)CC1)c1ccc(OC2CC2)c(Cl)c1Cl (centres unmarked)
### Prompt Pick one: 1 or 2 . Which has the bigger Emax number? Identify your pick by its label.
### Response 2
